experiment summary: Selectivity index, ratio of CC50 for human THLE2 cells to IC50 for human HepG2 cells
Assay type: toxicity
condition: THLE2 cells and HepG2 cells, read-out: Ratio CC50/IC50
Classification field: enter fulfilled for selectivity ratio values not below 8, not fulfilled for values below it.

COc1ccc(C(=O)C=CNc2cc(-c3ccccc3)nn2-c2ccccc2)cc1 | fulfilled

Decide: is the reported value of selectivity ratio for O=C(C=CNc1cc(-c2ccccc2)nn1-c1ccccc1)c1ccccc1 equal to or greater than 8?
fulfilled

Decide: is the reported value of selectivity ratio for Fc1ccc(-c2ccnc3c2c(-c2ccccc2)nn3-c2ccccc2)cc1 equal to or greater than 8?
fulfilled

Decide: is the reported value of selectivity ratio for CN1CCN(c2ccc(-c3c(C#N)c(-c4ccccc4)nc4c3c(-c3ccccc3)nn4-c3ccccc3)cc2)CC1 equal to or greater than 8?
not fulfilled

Decide: is the reported value of selectivity ratio for N#Cc1c(-c2ccc(Cl)cc2)nc2c(c(-c3ccccc3)nn2-c2ccccc2)c1-c1ccc(N2CCCCC2)cc1 equal to or greater than 8?
not fulfilled

Decide: is the reported value of selectivity ratio for c1ccc(-c2ccnc3c2c(-c2ccccc2)nn3-c2ccccc2)cc1 equal to or greater than 8?
fulfilled

Decide: is the reported value of selectivity ratio for COc1ccc(-c2nc3c(c(-c4ccccc4)nn3-c3ccccc3)c(-c3ccc(N4CCN(C)CC4)cc3)c2C#N)cc1 equal to or greater than 8?
fulfilled

###

system tested: CDK2/Cyclin A2 (Homo sapiens, UniProt P24941)
experiment summary: Inhibition of CDK2/Cyclin A2 (unknown origin) after 10 mins by ADP-Glo reagent based assay
endpoint: log10 IC50 (log10 of the value in µM)
Values below are the log10 of the recorded IC50, with µM as the unit.

Some compounds with known log10 IC50 results, for comparison:
O=C(C=CNc1cc(-c2ccccc2)nn1-c1ccccc1)c1cccs1 | -0.70
N#Cc1c(-c2ccc(Cl)cc2)nc2c(c(-c3ccccc3)nn2-c2ccccc2)c1-c1ccc(N2CCOCC2)cc1 | -0.19
c1ccc(-c2ccnc3c2c(-c2ccccc2)nn3-c2ccccc2)cc1 | -0.46
Brc1ccc(-c2ccnc3c2c(-c2ccccc2)nn3-c2ccccc2)cc1 | -1.09
COc1ccc(-c2nc3c(c(-c4ccccc4)nn3-c3ccccc3)c(-c3ccc(N4CCCCC4)cc3)c2C#N)cc1 | -1.07
c1ccc(-c2nn(-c3ccccc3)c3nccc(-c4cccs4)c23)cc1 | -1.25
CN1CCN(c2ccc(-c3c(C#N)c(-c4ccccc4)nc4c3c(-c3ccccc3)nn4-c3ccccc3)cc2)CC1 | -0.79
O=C(C=CNc1cc(-c2ccccc2)nn1-c1ccccc1)c1ccc(F)cc1 | -0.88

Kindly review the next compound as well.
Output reported log10 IC50 of the compound N#Cc1c(-c2ccccc2)nc2c(c(-c3ccccc3)nn2-c2ccccc2)c1-c1ccc(N2CCCCC2)cc1 on CDK2/Cyclin A2 (Homo sapiens, UniProt P24941).
-0.48

###

Reported CC50 by item:
experiment summary: Cytotoxicity against human MCF10A cells assessed as reduction in cell viability by MTT assay
Format: cell-based, MCF-10A
All answers are understood in µM, so give the number only.

Some compounds with known CC50 results, for comparison:
COc1ccc(-c2nc3c(c(-c4ccccc4)nn3-c3ccccc3)c(-c3ccc(N4CCOCC4)cc3)c2C#N)cc1 | 55.7
COc1ccc(C(=O)C=CNc2cc(-c3ccccc3)nn2-c2ccccc2)cc1 | 16.9
Fc1ccc(-c2ccnc3c2c(-c2ccccc2)nn3-c2ccccc2)cc1 | 28.3

Kindly review the next compound as well.
Query CC50 for COc1cccc2c1C(=O)c1c(O)c3c(c(O)c1C2=O)C[C@@](O)(C(=O)CO)C[C@@H]3O[C@H]1C[C@H](N)[C@H](O)[C@H](C)O1 [DOXORUBICIN]
13.9

###

system tested: Cyclin-dependent kinase 4/cyclin D1 (Homo sapiens)
Sequence (P11802 whole entry): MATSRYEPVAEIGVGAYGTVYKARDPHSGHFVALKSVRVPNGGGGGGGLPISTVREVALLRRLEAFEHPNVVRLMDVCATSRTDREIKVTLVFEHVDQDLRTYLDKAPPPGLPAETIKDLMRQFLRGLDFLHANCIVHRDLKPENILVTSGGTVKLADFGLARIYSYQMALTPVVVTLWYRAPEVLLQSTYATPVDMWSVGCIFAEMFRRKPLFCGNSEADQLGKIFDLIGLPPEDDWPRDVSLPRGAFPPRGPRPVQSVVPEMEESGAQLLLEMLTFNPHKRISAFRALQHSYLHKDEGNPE
Sequence (P24385 whole entry, further chain): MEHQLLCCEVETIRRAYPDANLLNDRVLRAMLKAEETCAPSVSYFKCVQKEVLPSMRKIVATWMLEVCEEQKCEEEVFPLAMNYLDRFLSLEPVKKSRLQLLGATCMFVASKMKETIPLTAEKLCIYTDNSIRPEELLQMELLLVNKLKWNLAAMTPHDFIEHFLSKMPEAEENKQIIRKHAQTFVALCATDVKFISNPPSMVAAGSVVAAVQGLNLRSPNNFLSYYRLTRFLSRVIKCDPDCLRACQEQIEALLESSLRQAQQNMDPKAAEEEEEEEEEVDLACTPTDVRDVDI
experiment summary: Inhibition of CDK4/cyclin D1 (unknown origin)
Reported IC50 by item:
All answers are understood in µM, so give the number only.

Some compounds with known IC50 results, for comparison:
Fc1ccc(-c2ccnc3c2c(-c2ccccc2)nn3-c2ccccc2)cc1 | 6.92
COc1ccc(-c2nc3c(c(-c4ccccc4)nn3-c3ccccc3)c(-c3ccc(N4CCN(C)CC4)cc3)c2C#N)cc1 | 104
COc1ccc(-c2nc3c(c(-c4ccccc4)nn3-c3ccccc3)c(-c3ccc(N4CCOCC4)cc3)c2C#N)cc1 | 21.2

Kindly review the next compound as well.
Output reported IC50 of the compound COc1ccc(C(=O)C=CNc2cc(-c3ccccc3)nn2-c2ccccc2)cc1 on Cyclin-dependent kinase 4/cyclin D1 (Homo sapiens).
16.7

###

System: MCF7
experiment summary: Antiproliferative activity against human MCF7 cells assessed as inhibition of cell growth after 48 hrs by MTT assay
Type: functional, cell-based
condition: MCF7, 48 h
Reported pIC50 by item:
Friendly reminder that pIC50 comes from taking -log10 of the concentration in mol/L.

Query pIC50 for O=C(C=CNc1cc(-c2ccccc2)nn1-c1ccccc1)c1ccc(F)cc1
5.04

Query pIC50 for CN1CCN(c2ccc(-c3c(C#N)c(-c4ccc(Cl)cc4)nc4c3c(-c3ccccc3)nn4-c3ccccc3)cc2)CC1
5.57

Query pIC50 for N#Cc1c(-c2ccccc2)nc2c(c(-c3ccccc3)nn2-c2ccccc2)c1-c1ccc(N2CCCCC2)cc1
4.57

Query pIC50 for CN1CCN(c2ccc(-c3c(C#N)c(-c4ccccc4)nc4c3c(-c3ccccc3)nn4-c3ccccc3)cc2)CC1
4.84

The origin of these recorded values is ChEMBL document CHEMBL4811242.
